Recorded measurements of IC50, one per entry
Tested on: UO31 cell line
Procedure summary: Cytotoxic activity (IC50) on kidney cancer cell line UO31
Assay type: cell-based
Condition details: Homo sapiens, UO-31; U031 (kidney cancer cell line); read-out: Cytotoxic Activity ( IC 50 )

Molecule	Unit label	IC50
C=C1CC[C@@H]2C(C)(C)[C@@H](O)CC[C@@]2(C)[C@@H]1COc1ccc2ccc(=O)oc2c1 [EXAMPLE MOLECULE II]	nM	380
C=C1CC[C@@H]2[C@](C)(C=O)[C@@H](O)CC[C@@]2(C)[C@@H]1COc1ccc2ccc(=O)oc2c1 [EXAMPLE MOLECULE V]	nM	24
C=C1CC[C@@H]2C(C)(C)[C@H](O)CC[C@@]2(C)[C@@H]1COc1ccc2ccc(=O)oc2c1 [EXAMPLE MOLECULE I]	nM	750
C=C1CC[C@@H]2[C@](C)(COC(C)=O)[C@H](O)CC[C@@]2(C)[C@@H]1COc1ccc2ccc(=O)oc2c1 [EXAMPLE MOLECULE IV]	nM	370
C/C(=C\COc1ccc2ccc(=O)oc2c1)CC/C=C(\C)CCC(O)C(C)(C)O (stereo not shown) [REFERENCE MOLECULE II]	nM	7600
CC(C)=CCC/C(C)=C/CC/C(C)=C/COc1ccc2ccc(=O)oc2c1 [REFERENCE MOLECULE I]	nM	1800
C=C1CC[C@@H]2[C@](C)(COC(C)=O)[C@@H](O)CC[C@@]2(C)[C@@H]1COc1ccc2ccc(=O)oc2c1 [EXAMPLE MOLECULE III]	nM	17

---

Tested on: KM12
Procedure summary: Cytotoxic activity (IC50) on cancer cell line KM12
Assay type: cell-based
Condition details: Homo sapiens, read-out: Cytotoxic Activity ( IC 50 )
Recorded measurements of IC50, one per entry

Compound	IC50
C=C1CC[C@@H]2C(C)(C)C(=O)CC[C@@]2(C)[C@@H]1COc1ccc2ccc(=O)oc2c1 [REFERENCE MOLECULE III]	> 50 µM
C=C1CC[C@@H]2[C@](C)(COC(C)=O)[C@H](O)CC[C@@]2(C)[C@@H]1COc1ccc2ccc(=O)oc2c1	> 50 µM
C=C1CC[C@H]2[C@@](C)(CCC(=O)[C@@]2(C)COC(C)=O)[C@@H]1COc1ccc2ccc(=O)oc2c1 [REFERENCE MOLECULE IV]	> 50 µM
C=C1CC[C@@H]2[C@](C)(COC(C)=O)[C@@H](O)CC[C@@]2(C)[C@@H]1COc1ccc2ccc(=O)oc2c1	> 50 µM
C=C1CC[C@@H]2[C@](C)(C=O)[C@@H](O)CC[C@@]2(C)[C@@H]1COc1ccc2ccc(=O)oc2c1	> 50 µM
C=C1CC[C@@H]2[C@](C)(CO)[C@H](O)CC[C@@]2(C)[C@@H]1COc1ccc2ccc(=O)oc2c1 [REFERENCE MOLECULE V]	> 50 µM
CC(C)=CCC/C(C)=C/CC/C(C)=C/COc1ccc2ccc(=O)oc2c1 [REFERENCE MOLECULE I]	> 50 µM
C=C1CC[C@@H]2C(C)(C)[C@H](O)CC[C@@]2(C)[C@@H]1COc1ccc2ccc(=O)oc2c1	2.5 µM
C=C1CC[C@@H]2C(C)(C)[C@@H](O)CC[C@@]2(C)[C@@H]1COc1ccc2ccc(=O)oc2c1	9.1 µM
C/C(=C\COc1ccc2ccc(=O)oc2c1)CC/C=C(\C)CCC(O)C(C)(C)O (stereo not shown) [REFERENCE MOLECULE II]	> 50 µM
